test: PSAC antagonists in infected red cells, primary screen, cell-based, P. falciparum Indochina, OD700, 2 h (AID 1155);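 also: lysis reports solute entry through the parasite surface anion channel PSAC; channel blockers reduce lysis of infected cells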; conditions: P. falciparum Indochina infected erythrocytes, osmotic lysis OD700, called active from +8 up or from −8 down
Calls of active or inactive are those of the source.
Outcomes: yes (active), no (inactive)

compound: C=C(CCCC)C(=O)CC[C@@H](OC(=O)c1ccccc1-c1ccccc1C(=O)O)c1ccc(OCCO)cc1
class: no

compound: C=C(COC)/C(=C/C[C@@H](OC(C)=O)c1ccc(OCCO)cc1)c1cnc2ccccc2c1
class: no

compound: CCCC[C@@H]1C[C@H]1[C@@H](NC(=O)c1ccco1)c1ccccc1C(F)(F)F
class: no

compound: CC1(C)[C@@H]2CC(C(O)C3C=CC4C(=O)N(Cc5ccccc5)C(=O)C4N3n3cnnc3)=C[C@H]1C2 (some centres undefined)
class: no

compound: OCCCC1=CC(c2cccs2)N(Cc2cc3c(cc2Br)OCO3)CC1 (centres undefined)
class: no

compound: COC(=O)[C@@]1(Cc2ccc(F)cc2)[C@H]2c3cc(C(=O)N(C)C)n(Cc4ccc(Cl)c(C(F)(F)F)c4)c3C[C@H]2CN1C(=O)c1ccccc1
class: no

compound: COC(=O)C(CC#Cc1ccc2c(c1)[C@]1(C(=O)N2)[C@H](C(=O)Nc2nc3ccccc3s2)[C@H]2C(=O)O[C@H](c3ccccc3)[C@H](c3ccccc3)N2[C@@H]1c1ccc(O)cc1)C(=O)OC
class: no

compound: CN1C(=O)C2C=CC(C(O)c3ccco3)N(Nc3ccccc3)C2C1=O (centres undefined)
class: no

compound: COCCOC(=O)N1C(=O)[C@@]2(c3cc(C#CCC(C(=O)OC)C(=O)OC)ccc31)[C@H](C(=O)Nc1nc3ccccc3s1)[C@H]1C(=O)O[C@H](c3ccccc3)[C@H](c3ccccc3)N1[C@@H]2c1ccccc1OCCO
class: no

compound: COC(=O)[C@@]1(Cc2ccc(OC)cc2)[C@H]2c3cc(C(=O)N4CCCC4)n(Cc4ccc(C)c(F)c4F)c3C[C@H]2CN1C(=O)c1ccccc1
class: no

compound: CC(=O)NCCCC[C@@H]1NC(=O)[C@@H]2C[C@H](C(=O)NCCCCCNC(=O)CS)[C@H](c3cccc(OCCO)c3)N2C1=O
class: no

compound: [N-]=[N+]=Nc1ccccc1[C@@H]1OC(c2ccc(OCCCO)cc2)=N[C@]1(Cc1ccccc1)C(=O)N1CCOCC1
class: yes

compound: CO[C@H]1O[C@H](CO)[C@@H](OC(=O)Nc2cccc(F)c2)[C@H](OC(=O)Nc2ccccc2)[C@@H]1OC(=O)Nc1ccccc1
class: no

compound: COCCOC(=O)N1C(=O)[C@@]2(c3cc(C#CCNC(N)=O)ccc31)[C@H](C(=O)Nc1nc3ccccc3s1)[C@H]1C(=O)O[C@H](c3ccccc3)[C@H](c3ccccc3)N1[C@@H]2c1ccc(OCCO)cc1
class: no

* * *

Overview of recorded composite z-score for various molecules
experiment: binders of probe aFGF2 on microarray, primary screen, stem cell growth factor project, biochemical, small-molecule microarray, fluorescence 635/667 (AID 1067); conditions: higher = more signal;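 also: measures binding of biotinylated aFGF2 protein to printed compounds on slides; z-score merges feature fluorescence and signal-to-noise across triplicate slides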
measured-property: composite z-score

molecule: CC(C)C[C@@H]1NC(=O)[C@@H]2C[C@H](C(=O)O)[C@H](c3cccc(OCCO)c3)N2C1=O
measured-result: -0.0403
//
molecule: CCC(CC)C(O)C1C=CC2C(=O)NC(=O)C2N1Nc1ccc(Cl)cc1Cl (centres undefined)
measured-result: 0.133
//
molecule: CO[C@H]1O[C@H](CO)[C@@H](OC(=O)Nc2ccccc2)[C@H](OC(=O)Nc2ccccc2)[C@@H]1OC(=O)Nc1ccccc1
measured-result: 0.205
//
molecule: O=C1C[C@@](C(=O)NCCN2CCOCC2)(c2ccc([N+](=O)[O-])cc2)[C@@H](c2ccc(CO)cc2)N1CC12CC3CC(CC(C3)C1)C2
measured-result: -0.0692
//
molecule: CN(C)CCCCCCNC(=O)[C@H]1C[C@H]2C(=O)N[C@@H](CCCCN)C(=O)N2[C@H]1c1cccc(OCCO)c1
measured-result: 0.898
//
molecule: CCCCCN1CC=CC23O[C@@H]4/C=C\CCC(C)OC(=O)C4[C@H]2C(=O)N(C(C)CO)[C@@H]3C1=O (some centres undefined)
measured-result: -0.164
//
molecule: COC(=O)c1c(CC[C@@H](CO)NC(=O)NCCn2cc(C3(O)CCCC3)nn2)oc(C(C)=O)c1C(=O)OC
measured-result: 0.127
//
molecule: C=C[C@H](C)[C@@H](OC(=O)Nc1ccc(OC)cc1)c1ccc(O)c2ccccc12
measured-result: -0.142
//
molecule: COC(=O)[C@@]1(Cc2ccc(F)cc2)[C@H]2c3cc(C(=O)N(C)C)n(Cc4ccccc4)c3C[C@H]2CN1C(=O)c1ccccc1
measured-result: 0.0103
//
molecule: CCOC(=O)C[C@H]1[C@H](OC(=O)c2ccccc2-c2ccccc2)[C@@H](NC(=O)CC(C)C)c2cc(OCCCO)ccc2N1C(=O)Cc1ccc(OC)cc1
measured-result: -0.104
//
molecule: CC(C)C[C@@H]1NC(=O)[C@@H]2C[C@H](C(=O)NCc3ccc(F)cc3)[C@H](c3cccc(OCCO)c3)N2C1=O
measured-result: -0.0861
//
molecule: CC(C)(C)OC(=O)CC[C@]1(C(=O)N2CCOCC2)N=C(c2ccc(OCCCO)cc2)O[C@H]1c1ccccc1N=[N+]=[N-]
measured-result: 0.0376
//
molecule: COc1cc2c(cc1OC)CN(C(=O)[C@H]1[C@@H]3C(=O)O[C@@H](c4ccccc4)[C@@H](c4ccccc4)N3[C@@H](c3ccc(O)cc3)[C@]13C(=O)Nc1ccc(C#CCCO)cc13)CC2
measured-result: -0.0659
//
molecule: [N-]=[N+]=Nc1ccccc1[C@H]1OC(c2ccc(OCCCO)cc2)=N[C@@]1(CCS(=O)(=O)c1ccccc1)C(N)=O
measured-result: 0.0797
//
molecule: CCOC(=O)C[C@H]1[C@H](OC(=O)c2cc3ccccc3oc2=O)[C@@H](NC(=O)c2ccccc2)c2cc(OCCCO)ccc2N1C(=O)c1ccc2ccccc2n1
measured-result: -0.0878
//
molecule: Cc1nc2cc(Br)ccc2c(=O)o1
measured-result: -0.158
//
molecule: Cc1ccc(N2C(=O)c3ccccc3[C@@H](C(=O)NC3CC3)[C@@H]2c2ccc(CO)cc2)nc1
measured-result: -0.149
//
molecule: COc1cc(NN2C(C(O)c3ccco3)C=CC3C(=O)N(c4ccccc4)C(=O)C32)cc(OC)c1OC (centres undefined)
measured-result: -0.116
//
molecule: COC(=O)C[C@H]1O[C@]2(C(=O)N(C)c3ccccc32)[C@@H](C)[C@@H]1[Si](C)(C)F
measured-result: -0.131
//
molecule: O=C1N[C@@H](Cc2ccccc2)C(=O)N2[C@@H]1C[C@@H](C(=O)O)[C@H]2c1cccc(OCCO)c1
measured-result: 0.0127
//
molecule: COCCOC(=O)N1C(=O)[C@@]2(c3cc(C#Cc4ccc(OC)cc4)ccc31)[C@H](c1ccc(OCCO)cc1)N1[C@H](c3ccccc3)[C@H](c3ccccc3)OC(=O)[C@H]1[C@@H]2C(=O)N1CCN(c2ncccn2)CC1
measured-result: -0.0113
//
molecule: CCCCCCc1nc(-c2ccc(OC)nc2)cc2c1[Si](C(C)C)(C(C)C)O[C@H]2c1ccccc1
measured-result: 0.0131
//
molecule: CC(C)C[C@@H]1NC(=O)[C@H](C(C)C)NC(=O)[C@@]23C(=O)N[C@@H](Cc4ccccc4)C2[C@H](C)[C@@]2(C)O[C@H]2C3/C=C/CC/C=C/CNC1=O (some centres undefined)
measured-result: -0.144
//
molecule: C=CCOC(=O)[C@H]1[C@@H]2C(=O)O[C@@H](c3ccccc3)[C@@H](c3ccccc3)N2[C@@H](c2ccc(OCCOC(=O)[C@H]3C[C@H]4C(=O)N[C@@H](CCCCNC(C)=O)C(=O)N4[C@H]3c3ccc(O)cc3)cc2)[C@]12C(=O)Nc1ccc(I)cc12
measured-result: 0.0126
//
molecule: COc1ccc(CCNC(=O)[C@@H]2c3ccccc3C(=O)N(Cc3ccccc3Cl)[C@H]2c2ccc(CO)cc2)cc1
measured-result: -0.123
//
molecule: C=CC[C@@]1(C(=O)NCCN2CCOCC2)N=C(c2ccc(OCCCO)cc2)O[C@@H]1c1ccccc1N=[N+]=[N-]
measured-result: -0.119
//
molecule: C=CCN1C(=O)[C@@]2(CC=C)N=C(c3ccc(OCCCO)cc3)O[C@H]2c2ccccc21
measured-result: 0.0606
//
molecule: COC(=O)[C@@]1(Cc2ccc(F)cc2)[C@H]2c3cc(C(=O)N(C)C)n(Cc4cc(F)c(F)c(F)c4)c3C[C@H]2CN1C(=O)c1ccccc1
measured-result: 0.261
//
molecule: C#C[C@H](O[Si](C#Cc1ccc(Oc2ccccc2)cc1)(C(C)C)C(C)C)c1ccccc1
measured-result: -0.0613

Values from PubChem BioAssay
